- Tested on: U2OS
- procedure_details: nuclei count (viability) relative to DMSO (% of DMSO); higher = more viable cells
- condition_summary: 10 µM; 24 h
Structures can show the parent of a compound that is named as a salt. The full ranking holds about 3,200 compounds; the median of “nuclei count (viability) relative to DMSO” is about 99, and the lowest 2% start at about 16. The full list was thinned out, with the lowest values kept by preference.
# binarize nuclei count: threshold 90 inclusive, high side condition met, low side condition not met

The examples below pair each entry with its known result.
| compound | qualitative_label |
| --- | --- |
| COC1CCC(C(=O)c2ccc3nc4c(cc3c2)CCCO4)CC1 (stereo not drawn) | condition met |
| CC(C)C[C@H](NC(=O)[C@H](Cc1ccccc1)NC(=O)c1cnccn1)B(O)O [Bortezomib (Velcade)] | condition not met |
| CC1=NN(c2ccc(C)c(C)c2)C(=O)/C1=N\Nc1cccc(-c2cccc(C(=O)O)c2)c1O | condition met |

Prompt line: Answer whether nuclei count of Cc1ccc(NC(=O)c2ccc(CN3CCN(C)CC3)cc2)cc1Nc1nccc(-c2cccnc2)n1 [Imatinib (STI571)] is greater than or equal to 90.
Response line: condition met

Prompt line: Answer whether nuclei count of Cc1ccc(NC(=O)c2ccc(CN3CCN(C)CC3)cc2)cc1Nc1nccc(-c2cccnc2)n1 [Imatinib mesylate] is greater than or equal to 90.
Response line: condition met

Prompt line: Answer whether nuclei count of Cc1[nH]c2ccccc2c1C(Nc1ccccn1)c1ccc(Cl)cc1 (stereo not drawn) is greater than or equal to 90.
Response line: condition met

Prompt line: Answer whether nuclei count of Cc1ccc(C(=O)Nc2ccc(CN3CCN(C)CC3)c(C(F)(F)F)c2)cc1C#Cc1cnc2[nH]ncc2c1 [GZD824 Dimesylate] is greater than or equal to 90.
Response line: condition not met

###

- System: U2OS
- procedure_details: nuclei count (viability) relative to DMSO (% of DMSO); higher = more viable cells
- condition_summary: 10 µM; 24 h
Where a name gives a salt, the structure may show the parent alone. The full ranking holds about 3,200 compounds; the median of “nuclei count (viability) relative to DMSO” is about 99, and the lowest 2% start at about 16. Shown is part of a subset that was picked to be rich in the lowest values.
Items are presented alongside their recorded nuclei count.
Give the figure by itself; no unit, no explanation.

Solved cases below.
| compound | nuclei count |
| --- | --- |
| O=C(O)CCC/C=C\C[C@@H]1CO[C@H](C(F)(F)F)O[C@@H]1c1ccccc1O | 102 |
| CC(C)Cc1ccc(C(C)C(=O)NO)cc1 (stereo unspecified) | 95.9 |
| CCCCC(CC)CNC(=N)NC(=N)NCCCCCCNC(=N)NC(=N)NCC(CC)CCCC (stereo unspecified) [Alexidine dihydrochloride] | 6.87 |
| C[C@H](NC(=O)/C(C#N)=C/c1cccc(Br)n1)c1ccccc1 | 7.49 |
| CCN(CC)CCNC(=O)c1c(C)[nH]c(/C=C2\C(=O)Nc3ccc(Cl)cc32)c1C | 79.9 |

Prompt line: In one line, give reported nuclei count of the entry O=C1c2ccccc2-c2nc3nonc3nc21 .
Response line: 44

Prompt line: In one line, give reported nuclei count of the entry NC(N)=S .
Response line: 103

Prompt line: In one line, give reported nuclei count of the entry COc1cc(NC(C)CCCN)c2ncccc2c1 (stereo unspecified) [Primaquine diphosphate] .
Response line: 15.7

Prompt line: In one line, give reported nuclei count of the entry O=C1NCCN1c1ncc([N+](=O)[O-])s1 .
Response line: 90.4

Recorded values, source the supplement of paper PMC8183993.
